tested on: C3H/10T1/2 mouse embryo fibroblasts; details: read-out: LC50 value; 10T1/2 cells
// reported CC50 per item
Please respond with the number in µM and leave the unit unwritten.

{"compound": "OC1c2cc3ccc4cccc5ccc(c2C2OC2C1O)c3c45 (stereo not drawn) [BaP-anti-diol epoxide]", "CC50 / µM": 0.25}

Identify CC50 associated with the compound CC(=O)ON(C(C)=O)c1ccc2c(c1)Cc1ccccc1-2 [N-acetoxy-acetyl aminofluorene] 15
